molecular target: T1, Soluble recombinant human urokinase receptor (suPAR) (human, UniProt Q03405 23-299, limits assumed, biotinylated in the plate assays (sites not given)); test: competition with phage displaying peptide 25 for soluble uPAR
T1 construct: Only called a soluble truncated form of the urokinase receptor; also called soluble uPAR; biotinylated suPAR
T1 sequence (Q03405 23-299 limits assumed): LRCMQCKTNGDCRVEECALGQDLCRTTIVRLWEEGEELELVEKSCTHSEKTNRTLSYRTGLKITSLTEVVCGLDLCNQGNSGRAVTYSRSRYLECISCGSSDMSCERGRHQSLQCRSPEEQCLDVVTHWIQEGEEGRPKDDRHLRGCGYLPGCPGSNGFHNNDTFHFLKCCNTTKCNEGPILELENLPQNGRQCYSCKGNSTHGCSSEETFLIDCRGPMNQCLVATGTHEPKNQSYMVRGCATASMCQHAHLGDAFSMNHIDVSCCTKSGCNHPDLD
Square brackets hold non-standard residues; d marks the D form. Ends that are not written are not given here. Abu = CC[C@H](N)C(=O)O
reported-property: % Inhibition at 5 uM (%)
The response must be a number in % with no trailing unit.

Query string: Assign % Inhibition at 5 uM to the following record: AESTYHHLSLGY[Abu]YTLN-NH2 (N-terminus assumed; SMILES CC[C@H](NC(=O)[C@H](Cc1ccc(O)cc1)NC(=O)CNC(=O)[C@H](CC(C)C)NC(=O)[C@H](CO)NC(=O)[C@H](CC(C)C)NC(=O)[C@H](Cc1c[nH]cn1)NC(=O)[C@H](Cc1c[nH]cn1)NC(=O)[C@H](Cc1ccc(O)cc1)NC(=O)[C@@H](NC(=O)[C@H](CO)NC(=O)[C@H](CCC(=O)O)NC(=O)[C@H](C)N)[C@@H](C)O)C(=O)N[C@@H](Cc1ccc(O)cc1)C(=O)N[C@H](C(=O)N[C@@H](CC(C)C)C(=O)N[C@@H](CC(N)=O)C(N)=O)[C@@H](C)O, T0004 prints Y there, as in peptide 25; Y is used) [Analog 45]
Result string: 59
